assay_system: Human brain NOS (Homo sapiens)
Construct: Purification of NOS from human brain; from tissue; host or cells: frozen human brain
assay_info: Human brain NOS enzyme activity assay
Type: biochemical
experimental_context: isolated enzyme from human brain
measured_attribute: Ki (µM)
Record the value in µM, omitting the unit from your answer.

Look up Ki for this molecule: `CCSC(=N)Nc1ccc(N(C)C)cc1`
1.4

Returns the measured Ki for the input molecule. Input: `CSC(=N)NCCCC[C@H](N)C(=O)O`
0.09

What value of Ki has been reported for the following molecule? `CSC(=N)NCc1cccc(CN)c1`
3

Sample `CC(C)CSC(=N)NCCC[C@H](N)C(=O)O` — what was its Ki?
5.5

// lookup Ki for CCSC(=N)Nc1ccc(O)cc1 [Example 1I, S-ethyl-N-(4-hydroxyphenyl)isothiourea]
0.34

I'd like to know its Ki. The molecule in question is `CCSC(=N)Nc1ccc(C)cc1`
0.18

State the recorded Ki for this entry: `CCOC(=N)NCc1cccc(CN)c1`
0.09

# get_value(readout='Ki', item= CCSC(=N)NCc1ccc(CN)cc1 [Example 14A] )
5.5

# query: Ki of entry `CC(C)CSC(=N)NCCCC[C@H](N)C(=O)O`
61

====

assay_system: inducible human NOS (Homo sapiens)
Construct: Purification of NOS cytokine-induced human colorectal adenocarcinoma DLD-1 cells; endogenous in cells; host or cells: DLD-1 (ATCC No. CCL 221), induced with IFN-gamma, IL-6, TNF and IL-1beta
assay_info: Assay for inducible human NOS (citrulline formation), enzyme from cytokine-induced DLD-1 cells
Format: biochemical
experimental_context: isolated enzyme from DLD-1 cells; read-out: Human Inducible Ki/μM
measured_attribute: Ki (µM)
The response must be a number in µM with no trailing unit.

Quick one: Ki for CCSC(=N)NCc1cccc(CN)c1 [Example 13A] ?
0.15

Which Ki value is on record for CCSC(=N)Nc1cccc(OC)c1 [Example 1A, S-ethyl-N-(3-methoxyphenyl)isothiourea] ?
3.2

So what does the record say about Ki for CSC(=N)NCc1ccc(CN)cc1 [Example 14] ?
22.6

Requested read-out: Ki. Entry: CCSC(=N)Nc1ccc(C)cc1 [Example 2I, S-Ethyl-N-(4-methylphenyl)isothiourea]
1.9

Return reported Ki; argument: CCSC(=N)Nc1ccc(OC)cc1 [Example 1J, S-ethyl-N-(4-methoxyphenyl)isothiourea]
4.9

Could you tell me which Ki is on file for CSC(=N)NCCCC[C@H](N)C(=O)O [Example 9A, N^6-(imino(methylthio)methyl)L-lysine] ?
1.7

# input compound: CCSC(=N)Nc1ccccc1Cl [Example 2G] ; wanted: its Ki
2.9

Look at this compound and give its reported Ki. CCSC(=N)Nc1ccc(Cl)c(C(F)(F)F)c1 [Example 2K]
17

If you can, please state the reported Ki value of CCSC(=N)Nc1ccncc1 [Example 2M, S-Ethyl-N-(4-pyridyl)isothiourea] .
23

Dear colleague, I am looking for the recorded Ki of the following compound: CSC(=N)NCc1ccc(CNC(=N)SC)cc1 [Example 7]
45

====

assay_system: inducible human NOS (Homo sapiens, UniProt P35228)
Construct: Purification of NOS cytokine-induced human colorectal adenocarcinoma DLD-1 cells; endogenous in cells; host or cells: DLD-1 (ATCC No. CCL 221), induced with IFN-gamma, IL-6, TNF and IL-1beta
Sequence (P35228 whole entry): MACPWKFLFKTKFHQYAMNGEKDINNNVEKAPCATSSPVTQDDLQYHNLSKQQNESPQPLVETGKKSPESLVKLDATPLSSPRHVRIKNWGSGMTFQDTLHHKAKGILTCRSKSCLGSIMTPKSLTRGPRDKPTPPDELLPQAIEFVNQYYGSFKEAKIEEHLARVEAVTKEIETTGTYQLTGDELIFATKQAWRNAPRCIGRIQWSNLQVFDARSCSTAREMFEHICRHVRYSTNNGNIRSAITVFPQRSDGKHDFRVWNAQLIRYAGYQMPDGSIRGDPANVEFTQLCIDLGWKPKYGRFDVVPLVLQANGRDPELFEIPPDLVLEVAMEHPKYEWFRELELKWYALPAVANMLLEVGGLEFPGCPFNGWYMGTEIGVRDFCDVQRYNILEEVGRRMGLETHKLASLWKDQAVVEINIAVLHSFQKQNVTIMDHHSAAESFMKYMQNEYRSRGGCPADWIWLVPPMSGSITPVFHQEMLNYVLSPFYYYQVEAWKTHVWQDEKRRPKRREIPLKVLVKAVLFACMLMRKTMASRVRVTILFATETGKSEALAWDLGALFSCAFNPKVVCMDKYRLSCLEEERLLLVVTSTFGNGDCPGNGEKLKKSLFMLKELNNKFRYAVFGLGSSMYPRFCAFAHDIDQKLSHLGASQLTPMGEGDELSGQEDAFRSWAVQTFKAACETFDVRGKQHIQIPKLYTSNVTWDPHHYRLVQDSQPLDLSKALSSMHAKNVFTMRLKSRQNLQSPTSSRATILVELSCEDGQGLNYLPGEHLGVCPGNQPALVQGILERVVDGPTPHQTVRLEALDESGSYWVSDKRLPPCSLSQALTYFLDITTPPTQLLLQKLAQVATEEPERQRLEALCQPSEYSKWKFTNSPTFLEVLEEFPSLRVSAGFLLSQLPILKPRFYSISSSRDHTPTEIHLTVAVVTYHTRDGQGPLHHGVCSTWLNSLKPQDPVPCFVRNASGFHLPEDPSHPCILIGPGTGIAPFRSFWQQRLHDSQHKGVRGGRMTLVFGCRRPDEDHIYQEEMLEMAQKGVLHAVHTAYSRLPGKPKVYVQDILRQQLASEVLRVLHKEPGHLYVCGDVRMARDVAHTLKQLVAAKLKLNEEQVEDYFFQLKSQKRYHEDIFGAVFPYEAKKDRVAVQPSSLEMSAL
assay_info: Assay for inducible human NOS (citrulline formation), enzyme from cytokine-induced DLD-1 cells
Format: biochemical
experimental_context: concentration not given
measured_attribute: Human Inducible, percent (inhibition), concentration not given (%)
Please respond with the number in % and leave the unit unwritten.

Entry `CCSC(=N)Nc1ccc(C(=O)O)cc1` has what Human Inducible, percent (inhibition), concentration not given?
0

What value of Human Inducible, percent (inhibition), concentration not given has been reported for the following compound? `CCSC(=N)Nc1cc(C(F)(F)F)ccc1Cl`
20

What measured Human Inducible, percent (inhibition), concentration not given goes with `CCOC(=N)Nc1ccc(C(F)(F)F)cc1` ?
12

Reported Human Inducible, percent (inhibition), concentration not given for `COC(=N)Nc1ccc(C(F)(F)F)cc1` : what is it?
4

# get_value(readout='Human Inducible, percent (inhibition), concentration not given', item= `N=C(Nc1ccc(C(F)(F)F)cc1)SCc1ccccc1` )
0

====

assay_system: Human brain NOS (Homo sapiens, UniProt P29475)
Construct: Purification of NOS from human brain; from tissue; host or cells: frozen human brain
Sequence (P29475 whole entry): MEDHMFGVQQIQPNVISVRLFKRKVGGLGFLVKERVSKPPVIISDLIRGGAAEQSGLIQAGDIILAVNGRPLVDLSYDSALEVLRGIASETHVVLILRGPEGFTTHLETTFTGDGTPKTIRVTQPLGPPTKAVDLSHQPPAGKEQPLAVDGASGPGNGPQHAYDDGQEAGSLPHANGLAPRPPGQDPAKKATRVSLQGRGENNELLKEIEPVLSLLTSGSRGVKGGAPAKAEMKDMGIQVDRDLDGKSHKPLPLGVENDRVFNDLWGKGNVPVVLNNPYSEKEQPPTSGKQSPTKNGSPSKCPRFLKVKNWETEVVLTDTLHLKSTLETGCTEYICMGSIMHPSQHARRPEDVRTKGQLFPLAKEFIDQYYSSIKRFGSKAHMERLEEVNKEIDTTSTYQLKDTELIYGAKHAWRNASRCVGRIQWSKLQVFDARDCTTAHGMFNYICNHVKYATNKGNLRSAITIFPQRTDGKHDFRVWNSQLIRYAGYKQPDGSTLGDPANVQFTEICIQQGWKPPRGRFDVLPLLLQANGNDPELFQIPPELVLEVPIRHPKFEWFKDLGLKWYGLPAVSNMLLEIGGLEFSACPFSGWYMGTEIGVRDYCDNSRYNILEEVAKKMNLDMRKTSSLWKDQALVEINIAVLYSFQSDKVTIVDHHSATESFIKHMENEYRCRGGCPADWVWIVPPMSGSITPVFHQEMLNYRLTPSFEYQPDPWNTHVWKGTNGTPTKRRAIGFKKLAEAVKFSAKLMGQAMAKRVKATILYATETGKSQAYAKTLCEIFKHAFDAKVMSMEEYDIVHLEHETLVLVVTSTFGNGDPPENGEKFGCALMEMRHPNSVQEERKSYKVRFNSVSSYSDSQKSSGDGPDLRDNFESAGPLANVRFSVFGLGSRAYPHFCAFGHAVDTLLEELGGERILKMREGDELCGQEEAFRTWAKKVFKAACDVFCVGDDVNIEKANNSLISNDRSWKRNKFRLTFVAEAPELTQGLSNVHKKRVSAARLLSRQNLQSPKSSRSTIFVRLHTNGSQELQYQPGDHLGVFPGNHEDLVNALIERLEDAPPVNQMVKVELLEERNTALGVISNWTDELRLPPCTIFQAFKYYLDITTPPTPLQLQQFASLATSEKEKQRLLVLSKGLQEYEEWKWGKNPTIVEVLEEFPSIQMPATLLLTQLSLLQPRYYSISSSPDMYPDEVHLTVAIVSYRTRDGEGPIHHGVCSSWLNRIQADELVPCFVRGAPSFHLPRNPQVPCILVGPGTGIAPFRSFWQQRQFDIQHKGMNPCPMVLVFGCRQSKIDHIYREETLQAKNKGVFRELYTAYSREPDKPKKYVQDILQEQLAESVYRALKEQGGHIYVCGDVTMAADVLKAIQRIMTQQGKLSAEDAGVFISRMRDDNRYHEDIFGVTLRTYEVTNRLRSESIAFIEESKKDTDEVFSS
assay_info: Human brain NOS enzyme activity assay
Assay type: biochemical
experimental_context: isolated enzyme from human brain
Counter-ions that a name gives are not always drawn.
Answer each item with its documented Ki.

Look at this compound and give its reported Ki. CSC(=N)NCc1cccc(CNC(=N)SC)c1 [Example 6]
0.5 µM

Entry CCSC(=N)Nc1ccccc1C(F)(F)F [Example 2F] : reported Ki = ?
1.4 µM

Name the recorded Ki for CCOC(=N)Nc1ccc(C(F)(F)F)cc1 [Example 3A] .
1.9 µM

Please give the measured Ki for this compound: CCSC(=N)Nc1ccc(C(C)C)cc1 [Example 2D, S-Ethyl-N-(4-isopropylphenyl)isothiourea]
0.33 µM

Can you look up the measured Ki of CCSC(=N)Nc1cccc(Cl)c1 [Example 2B, S-Ethyl-N-(3-chlorophenyl)isothiourea] for me?
0.45 µM

Given CCSC(=N)Nc1ccccc1Br [Example 1F, S-ethyl-N-(2-bromophenyl)isothiourea] , state its recorded Ki.
0.25 µM

Given CC(C)SC(=N)NCCCC[C@@H](N)C(=O)O [Example 9L] , state its recorded Ki.
108 µM

Any idea what its Ki is? The compound is CC(C)SC(=N)NCCC[C@@H](N)C(=O)O [Example 9K]
61 µM

Would you kindly share the measured Ki for CCSC(=N)Nc1ccccc1Cl [Example 2G] ?
0.17 µM

Recorded Ki for CCSC(=N)Nc1ccc(C(F)(F)F)cc1 [Example 2, hydrochloride] , please?
0.32 µM

Item under review: CC(C)CSC(=N)NCCC[C@@H](N)C(=O)O [Example 9M] . Reported Ki?
19.5 µM

Ki for CCOC(=O)c1ccc(NC(=N)SCC)cc1 [Example 1C] ?
1.6 µM

Look up Ki for this compound: CSC(=N)NCc1ccc(CN)cc1 [Example 14]
28 µM

Which Ki reading was recorded for the compound CCSC(=N)Nc1cccnc1 [Example 2J, S-Ethyl-N-(3-pyridyl)isothiourea] ?
1 µM

====

assay_system: human placental NOS (Homo sapiens, UniProt P29474)
Construct: Purification of NOS from human placenta; from tissue; host or cells: fresh human placenta
assay_info: Assay for human placental NOS (citrulline formation)
Assay type: biochemical
experimental_context: isolated enzyme from human placenta; read-out: Human Placental Ki/μM
Counter-ions that a name gives are not always drawn.
measured_attribute: Ki (µM)
State the answer as a number, implicitly in µM.

What value of Ki has been recorded for this entry: CCSC(=N)Nc1ccc(C(F)(F)F)cc1 [Example 2, hydrochloride]
9.4

Bench note: what Ki did `CCSC(=N)Nc1ccc(C(C)C)cc1` show?
7.7

Entry under review: `CSC(=N)NCc1ccc(CN)cc1` . Reported Ki?
23.2

// Ki lookup, key: `CCSC(=N)Nc1ccccc1C(C)C`
6.5

Fill in the blank: the reported Ki of `CC(C)SC(=N)NCCCC[C@@H](N)C(=O)O` is ____.
23

Any idea what Ki was measured for `CCSC(=N)Nc1ccc(C2CCCCC2)cc1` ?
14

Ki for `CCSC(=N)Nc1ccccc1C(F)(F)F` ?
1.8

Record request: Ki value, item `CC(C)CSC(=N)NCCCC[C@H](N)C(=O)O`
79

Look up Ki: `CCSC(=N)Nc1ccccc1OC`
1.6

Item CCSC(=N)NCc1cccc(CN)c1 [Example 13A] has what recorded Ki?
2.1

Can you look up the measured Ki of `CC(C)SC(=N)NCCCC[C@H](N)C(=O)O` for me?
23.2

Field request: Ki | item: `CCSC(=N)Nc1ccc(Cl)c(C(F)(F)F)c1`
8.2

What value of measured Ki is listed for CCSC(=N)Nc1ccc(O)cc1 [Example 1I, S-ethyl-N-(4-hydroxyphenyl)isothiourea] ?
2.7

Record request: Ki value, item `N[C@@H](CCCNC1=NCCS1)C(=O)O`
5.5

# input molecule: `CCSC(=N)Nc1ccccc1Br` ; wanted: its Ki
2

====

assay_system: inducible human NOS (Homo sapiens)
Construct: Purification of NOS cytokine-induced human colorectal adenocarcinoma DLD-1 cells; endogenous in cells; host or cells: DLD-1 (ATCC No. CCL 221), induced with IFN-gamma, IL-6, TNF and IL-1beta
assay_info: Assay for inducible human NOS (citrulline formation), enzyme from cytokine-induced DLD-1 cells
Format: biochemical
experimental_context: isolated enzyme from DLD-1 cells; read-out: Human Inducible Ki/μM
measured_attribute: Ki (µM)
Return type: number; implicit unit µM.

# Ki lookup, item CCSC(=N)Nc1ccccc1C(C)C [Example 2C, S-Ethyl-N-(2-isopropylphenyl)isothiourea]
10

Which Ki reading was recorded for the molecule CCSC(=N)Nc1ccc(O)cc1 [Example 1I, S-ethyl-N-(4-hydroxyphenyl)isothiourea] ?
2.5

What measured Ki goes with CCSC(=N)Nc1ccc(C2CCCCC2)cc1 [Example 1H] ?
28

Return reported Ki; argument: CSC(=N)NCc1cccc(CN)c1 [Example 13]
0.69

Field request: Ki | item: CCSC(=N)Nc1cccc(C(=O)O)c1 [Example 1E, S-ethyl-N-(3-carboxyphenyl)isothiourea]
44

Give its Ki value. Item: N[C@@H](CCCNC1=NCCS1)C(=O)O [Example 5, N^5-(2-thiazolin-2-yl)-L-ornithine]
3.3

Would you mind telling me what Ki value was observed for CCSC(=N)Nc1ccc(N(C)C)cc1 [Example 1G] ?
29

Which measured Ki value corresponds to CC(C)CSC(=N)NCCC[C@H](N)C(=O)O [Example 9E] ?
5.3

Suppose we examine the molecule CC(C)SC(=N)NCCCC[C@@H](N)C(=O)O [Example 9L] ; what Ki value has been reported?
19

Entry under review: CCSC(=N)Nc1ccc(Oc2ccccc2)cc1 [Example 1, S-Ethyl-N-(4-phenoxyphenyl)isothiourea] . Reported Ki?
3.1

Fill in the blank: the reported Ki of CCSC(=N)Nc1ccccc1Br [Example 1F, S-ethyl-N-(2-bromophenyl)isothiourea] is ____.
4.7

Sample CC(C)CSC(=N)NCCC[C@@H](N)C(=O)O [Example 9M] — what was its Ki?
13

Bench note: what Ki did N[C@@H](CCCCNC1=NCCS1)C(=O)O [Example 5A, N^6-(2-thiazolin-2-yl)-L-lysine] show?
11

Recorded Ki of CSC(=N)NCc1cccc(CNC(=N)SC)c1 [Example 6] , please.
2.3

Ref: patent US20010034342A1
